Listing of recorded IC50 by entry.
biological target: HDAC2 (Homo sapiens (Human)); assay: HDAC enzyme assay, HDAC2; details: read-out: HDAC2 IC50
Please reply with the bare figure in nM and do not write the unit itself.

Use these answered entries as a reference point.
structure-string	measure	units-text	assay-value
COc1ccc(C2(Nc3ncc(C(=O)NO)cn3)CCCC2)cc1	IC50	nM	220
O=C(NO)c1cnc(Nc2ccccc2Cl)nc1	IC50	nM	629

Noted for COc1ccc(Nc2ncc(C(=O)NO)cn2)cc1 : its IC50 reads 395

Noted for O=C(NO)c1cnc(NC2(c3ccccc3)CCC2)nc1 : its IC50 reads 159

Noted for O=C(NO)c1cnc(Nc2cc(Cl)cc(OC(F)(F)F)c2)nc1 : its IC50 reads 700

Noted for O=C(NO)c1cnc(NC2(c3cccc(F)c3)CCCC2)nc1 : its IC50 reads 476

Noted for O=C(NO)c1cnc(NCc2ccc3c(c2)OCO3)nc1 : its IC50 reads 53

Noted for O=C(NO)c1cnc(NC23CC4CC(CC(C4)C2)C3)nc1 : its IC50 reads 701

Noted for O=C(NO)c1cnc(NC2(c3ccccc3Cl)CC2)nc1 : its IC50 reads 36

Noted for O=C(NO)c1cnc(NCc2ccccc2)nc1 : its IC50 reads 140

Noted for CC(C)(Nc1ncc(C(=O)NO)cn1)c1ccccc1F : its IC50 reads 912

Noted for O=C(NO)c1cnc(NC2(c3ccc4c(c3)OCO4)CC2)nc1 : its IC50 reads 17

Noted for O=C(NO)c1cnc(NCc2ccc(C(F)(F)F)cc2)nc1 : its IC50 reads 127

Noted for O=C(NO)c1cnc(NC2(c3ccc(F)cc3)CCOCC2)nc1 : its IC50 reads 330

Noted for O=C(NO)c1cnc(NC2(c3ccc(Cl)cc3)CC2)nc1 : its IC50 reads 40

Noted for O=C(NO)c1cnc(NC2(c3cccc(OC(F)(F)F)c3)CC2)nc1 : its IC50 reads 19

Noted for CC(C)(Nc1ncc(C(=O)NO)cn1)c1ccc(Cl)cc1F : its IC50 reads 452

====

target: HDAC2 (Homo sapiens (Human), UniProt Q92769); test: HDAC enzyme assay, HDAC2; settings: ratio HDAC2/HDAC6
Sequence (Q92769 whole entry): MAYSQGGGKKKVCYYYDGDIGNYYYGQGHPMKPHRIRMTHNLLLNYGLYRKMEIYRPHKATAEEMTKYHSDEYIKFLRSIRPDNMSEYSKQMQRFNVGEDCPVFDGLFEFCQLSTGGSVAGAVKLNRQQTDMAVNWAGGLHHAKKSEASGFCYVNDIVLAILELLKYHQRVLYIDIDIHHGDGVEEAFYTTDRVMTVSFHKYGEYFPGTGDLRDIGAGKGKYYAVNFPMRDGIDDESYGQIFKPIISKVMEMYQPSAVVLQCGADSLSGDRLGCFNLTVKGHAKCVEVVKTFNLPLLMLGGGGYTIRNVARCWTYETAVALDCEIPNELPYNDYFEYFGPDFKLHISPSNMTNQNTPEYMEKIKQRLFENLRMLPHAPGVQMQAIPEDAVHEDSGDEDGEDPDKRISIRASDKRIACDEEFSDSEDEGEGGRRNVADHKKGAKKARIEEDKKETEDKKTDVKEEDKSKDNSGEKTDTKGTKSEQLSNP
measure: HDAC2 fold over HDAC6 IC50 (selectivity for HDAC6)

compound	system-tested	assay-value
O=C(NO)c1cnc(NC2(c3cccc(OC(F)(F)F)c3)CC2)nc1 [Compound 125]	HDAC2 (Homo sapiens (Human), UniProt Q92769)	(9x)
COc1ccc(C2(Nc3ncc(C(=O)NO)cn3)CC2)cc1OC [Compound 138]	HDAC2 (Homo sapiens (Human), UniProt Q92769)	(6x)

====

target: UniProtKB Q92769; assay: HDAC enzyme assay, HDAC2; conditions: ratio HDAC2/HDAC6
measure: HDAC2 fold over HDAC6 IC50 (selectivity for HDAC6)

molecule	assay-value
O=C(NO)c1cnc(NC2(c3cccc(F)c3F)CC2)nc1 [Compound 143]	(5x)
CC(C)(Nc1ncc(C(=O)NO)cn1)c1cc(C(F)(F)F)cc(C(F)(F)F)c1 [Compound 92]	(68x)

====

molecular target: HDAC2 (Homo sapiens (Human), UniProt Q92769); test: HDAC enzyme assay, HDAC2; details: ratio HDAC2/HDAC6
measure: HDAC2 fold over HDAC6 IC50 (selectivity for HDAC6)

Noted for O=C(NO)c1cnc(Nc2ccccc2)nc1 [Compound 1] : its HDAC2 fold over HDAC6 IC50 (selectivity for HDAC6) reads 30x
